Quick reference for pIC50 among some sequences
target: HLA-B*35:01
method: IEDB peptide-MHC binding, purified MHC/competitive/radioactivity; bounds were set here for any values at or beyond the usual limits of such assays
conditions: source organism: Bordetella pertussis
pIC50: −log10 of the molar value.

{"columns": ["monomer sequence", "pIC50"],
 "data": [
  ["MDAKGGTLL", 4.16],
  ["VPASGAPAA", 5.33],
  ["EVAKVEVVP", 4.16],
  ["LPVSLTALD", 5.15]
]}

---

Quick reference for pIC50 among some sequences
target: HLA-B*53:01
method: IEDB peptide-MHC binding, purified MHC/competitive/radioactivity; bounds were set here for any values at or beyond the usual limits of such assays
conditions: source organism: Bordetella pertussis
pIC50: −log10 of the molar value.

{"columns": ["monomer sequence", "target", "rel", "pIC50"],
 "data": [
  ["AQQLKQADR", "HLA-B*53:01", "=", 4.33],
  ["VVDGPPSRP", "HLA-B*53:01", "=", 4.16],
  ["TFEGKPALE", "HLA-B*53:01", "=", 4.34],
  ["LPVSLTALD", "HLA-B*53:01", "=", 4.64],
  ["FVWYVDTVI", "HLA-B*53:01", "=", 4.52],
  ["LPLKANPMH", "HLA-B*53:01", "≤", 4.11],
  ["AIRVGRGAR", "HLA-B*53:01", "=", 4.28]
]}

---

target: HLA-A*02:01
method: IEDB peptide-MHC binding, purified MHC/competitive/radioactivity; bounds were set here for any values at or beyond the usual limits of such assays
conditions: source organism: Bordetella pertussis
Quick reference for IC50 among some sequences

{"columns": ["monomer sequence", "IC50"],
 "data": [
  ["SLFAPHGNV", "7.09 µM"],
  ["GIGALKAGA", "69.4 µM"],
  ["VSSPPPVSV", "49.5 µM"],
  ["ILLENPAAE", "18.7 µM"],
  ["FVWYVDTVI", "0.802 µM"]
]}
